Species: Homo sapiens
Test: Selectivity ratio of Ki for human recombinant adenosine A1 receptor to Ki for human recombinant adenosine A2A receptor
Form field: Ratio Ki (one value per entry).

Sample answers from the record:
[[record]]
compound = "CN(CCc1cccs1)c1nc(-c2ccco2)c(C(=O)c2ccccc2)s1"
result = "> 1.2"

[[record]]
compound = "CN(C)c1nc(-c2ccco2)c(C(=O)c2ccccc2)s1"
result = "> 1.5"


Please indicate Ratio Ki recorded for O=C(c1ccccc1)c1sc(N(CCc2cccs2)Cc2ccccc2)nc1-c1ccco1
> 1.4

---

Form field: Ki (one value per entry).
Target: Adenosine receptor A2a (Homo sapiens)
Sequence (P29274 whole entry): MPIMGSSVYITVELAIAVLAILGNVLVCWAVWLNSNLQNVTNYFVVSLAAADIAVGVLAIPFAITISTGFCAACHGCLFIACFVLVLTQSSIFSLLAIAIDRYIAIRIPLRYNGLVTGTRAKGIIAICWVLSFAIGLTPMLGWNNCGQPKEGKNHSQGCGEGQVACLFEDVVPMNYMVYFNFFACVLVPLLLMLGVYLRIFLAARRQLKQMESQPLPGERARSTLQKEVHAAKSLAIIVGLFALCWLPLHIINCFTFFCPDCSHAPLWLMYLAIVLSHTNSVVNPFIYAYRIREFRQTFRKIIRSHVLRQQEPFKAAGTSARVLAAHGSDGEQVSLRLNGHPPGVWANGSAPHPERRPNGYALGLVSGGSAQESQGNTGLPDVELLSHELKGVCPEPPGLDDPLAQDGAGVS
Assay: Displacement of [3H]SCH-58261 from human recombinant adenosine A2A receptor expressed in HEK293 cells
Give the quantity in µM, number only.

Please indicate Ki recorded for O=C(c1ccccc1)c1sc(N(CCc2cccs2)Cc2ccccc2)nc1-c1ccco1
7.14

Please indicate Ki recorded for CN(C)c1nc(-c2ccco2)c(C(=O)c2ccccc2)s1
6.82

Please indicate Ki recorded for CN(Cc1ccco1)c1nc(-c2ccco2)c(C(=O)c2ccccc2)s1
0.16

Please indicate Ki recorded for O=C(c1ccccc1)c1sc(NCc2ccco2)nc1-c1ccco1
0.043

Please indicate Ki recorded for COCCNc1nc(-c2ccco2)c(C(=O)c2ccccc2)s1
0.195

Please indicate Ki recorded for CN(CCc1cccs1)c1nc(-c2ccco2)c(C(=O)c2ccccc2)s1
8.17
